# Assay Details: NOVARTIS: Cytotoxicity against human hepatocellular carcinoma cell line (Huh7)
# Type: toxicity, cell-based, Huh-7
# Experimental Conditions: Huh7 cells (hepatocellular carcinoma cell line)
Property Label: CC50

For orientation, consider the following solved cases.
COc1ccc(C2CC(=O)C3=C(C2)NC(C)=C(C(=O)OC2CCCC2)C3c2ccc([N+](=O)[O-])cc2)cc1OC (stereo not given) = > 100 µM
Cn1c(SCCCCNC(=O)c2cc([N+](=O)[O-])cc([N+](=O)[O-])c2)nc(-c2ccccc2)c1-c1ccccc1 = > 8.57 µM

Query block: // Input: O=C(Cc1ccccc1)NCc1ccc(Nc2c(-c3cccnc3)nc3ccccn23)cc1 . Output its CC50 only.
Result block: > 10 µM

Query block: Identify the reported CC50 for the following entry. CCCN1CCc2c(sc3nc(SCC(=O)OC)nc(N)c23)C1
Result block: > 100 µM

Query block: Annotate the compound Fc1ccc2[nH]c3c(NCCN4CCCCC4)ncnc3c2c1 with its measured CC50.
Result block: 23.7 µM

Query block: Return CC50 for the following compound: CSc1cccc(NC(=O)C2C3C=CC4(O3)C2C(=O)N(Cc2ccc(F)cc2)C4C(=O)NC2CCCC(C)C2C)c1 (stereo not given)
Result block: > 100 µM

Query block: Answer with the recorded CC50 of Cc1cccc(NC(=O)/C(C#N)=C/c2ccc(C)o2)c1 only.
Result block: > 10 µM

###

In this section, each of the compounds is paired with its reported CC50.
# Assay Details: NOVARTIS: Cytotoxicity against human hepatocellular carcinoma cell line (Huh7)
# Assay type: toxicity, cell-based, Huh-7
# Experimental Conditions: Huh7 cells (hepatocellular carcinoma cell line)

These recorded examples may help you get a feel for the data.
O=C(Nc1ccc(Oc2cccc(Oc3ccc(NC(=O)c4ccc(Br)o4)cc3)c2)cc1)c1ccc(Br)o1 = > 100 µM
COC(=O)C1=C(C)NC2=C(C(=O)CC(C)(C)C2)C1c1ccc(C)o1 (centres undefined) = > 100 µM
CNC(=O)c1ccc(NC(=O)Nc2ccc(C3=NCCCN3)cc2)cc1NC(=O)Nc1ccc(C2=NCCCN2)cc1 = > 10 µM
CCCC(=O)N(C/C=C/c1ccccc1OC)CCN1CCN(C(=O)Nc2cccc(C)c2)CC1 = > 10 µM
CS/C(Cl)=C(/NC(C)=O)[P+](c1ccccc1)(c1ccccc1)c1ccccc1.[O-][Cl+3]([O-])([O-])[O-] = > 10 µM

Query block: Dear colleague, please send me the reported CC50 for NC(=O)c1ccc2c(c1)N=C(/C=C/c1ccccc1)N(C1CC1)C2 when you can.
Result block: 22.9 µM

Query block: Supply measured CC50 of N#Cc1ccccc1Cn1nc(-c2cccnc2)oc1=O in your reply.
Result block: > 100 µM

Query block: Quote CC50 reported for Cc1cc(C)cc(C(=O)Nc2c3c(nn2-c2cccc(C)c2C)CS(=O)(=O)C3)c1 please.
Result block: > 10 µM

Query block: Please report CC50 for the following compound: COCCCNc1nc2cc(OC)c(OC)cc2c2nc(-c3ccccc3)nn12
Result block: > 100 µM

###

# Tested on: Plasmodium falciparum
# Assay Details: NOVARTIS: Inhibition of Plasmodium falciparum 3D7 (drug-susceptible) proliferation in erythrocyte-based infection assay
# Type: functional, organism-based
# Experimental Conditions: Plasmodium falciparum, 3D7
Property Label: EC50 (nM)
I only need the number, in nM, no unit after it.

Example compounds with recorded EC50:
CC1(C)C2C[C@@H](COC(=O)NC(=O)c3ccccc3)[C@]3(C)[C@H](C21)C3(Cl)Cl (stereo not given in full) = 1140
CC(C)(C)CC(C)(C)Nc1c(-c2ccccc2OC(=O)C2CCC2)nc2ccccn12 = 729
Cc1ccn2c(NC(C)(C)CC(C)(C)C)c(-c3ccccc3OC(=O)c3ccc(Br)cc3)nc2c1 = 740
CCOc1ccc(C=C(C#N)c2nc3ccccc3[nH]2)cc1OC = 516

Query block: Please tell me the measured EC50 for CCCCOc1ccc(/C=C/C(=O)NCc2ccco2)cc1 ; system: Plasmodium falciparum.
Result block: 183

###

# Assay Details: NOVARTIS: Cytotoxicity against human hepatocellular carcinoma cell line (Huh7)
# Assay type: toxicity, cell-based, Huh-7
# Experimental Conditions: Huh7 cells (hepatocellular carcinoma cell line)
Property Label: CC50

CCOc1ccc(S(=O)(=O)c2cn(Cc3ccccc3C)c3ccc(OC)cc3c2=O)cc1 = > 100 µM
CCCCc1ccc(C(=O)Oc2ccccc2-c2nc3cc(C)ccn3c2NC(C)(C)CC(C)(C)C)cc1 = > 10 µM
CCCc1c(CC)c(=N)c2ccccc2n1C = > 100 µM
CCCc1c(C(=O)OCC)c2cc(O)ccc2n1-c1ccc(OC)cc1 = > 100 µM

As a next step, examine the molecule that follows.
Query block: Look up and report measured CC50 for this entry: CC(C)CNc1nc(NCCC2CCCN2C)ncc1C(=O)NCc1ccccc1 (stereo not given)
Result block: > 10 µM

###

# Tested on: Plasmodium falciparum
# Assay Details: NOVARTIS: Inhibition of Plasmodium falciparum W2 (drug-resistant) proliferation in erythrocyte-based infection assay
# Assay type: functional, organism-based
# Experimental Conditions: Plasmodium falciparum, W2; read-out: EC50
Property Label: log10 EC50 (log10 of the value in nM)
Recorded EC50 (log10, nM)

Please review the following examples before continuing.
O=C(O)c1c(F)cccc1Cl = 3.45
CC(=O)N1c2ccc(C)cc2C(C)(c2ccccc2)CC1(C)C (configuration not stated) = 2.83
Cc1ccc(-c2c3c(nc4sc(C(=O)Nc5ccc(F)cc5)c(N)c24)CCC3)cc1 = 1.43

Query block: Hello, please tell me recorded log10 EC50 for this one: O=c1c2sccc2nc(SCc2cc(=O)n3ccccc3n2)n1Cc1ccccc1
Result block: 3.11

Query block: Quick one: give measured log10 EC50 for CNc1ccccc1C(=O)N(C)CCc1ccccc1
Result block: 1.83

Query block: Specify reported log10 EC50 for the molecule shown: COc1ccc(-c2c[n+](CC(=O)O[C@H]3C[C@H](C)CC[C@@H]3C(C)C)c3n2CCCCC3)cc1
Result block: 2.61

Query block: Quick one: give measured log10 EC50 for N=c1c2c(n(Cc3ccccc3)c3c1CCC3)CCCC2
Result block: 2.87

Query block: Answer with reported log10 EC50 of Nc1ccc(C(=O)Nc2ccc(-c3nc4ccccc4o3)cc2)cc1
Result block: 2.95

Query block: Kindly indicate its recorded log10 EC50. Item: c1ccc(OCCOc2ccc(Nc3c4ccccc4nc4ccccc34)cc2)cc1
Result block: 2.54

Query block: For the molecule CC(NC(=O)C(=O)N1CCCCC1)C(c1cccs1)N1CCOCC1 (configuration not stated) , give its measured log10 EC50 value.
Result block: 2.83

Query block: Give the measured log10 EC50 for COc1cc2c(cc1OC)-c1cc3ccc4c(c3c[n+]1CC2)OCO4
Result block: 2.37

###

# Assay Details: NOVARTIS: Cytotoxicity against human hepatocellular carcinoma cell line (Huh7)
# Format: toxicity, cell-based, Huh-7
# Experimental Conditions: Huh7 cells (hepatocellular carcinoma cell line)
Property Label: CC50

Some solved cases for reference:
Cc1ccc(S(=O)(=O)N2CCN(C(=O)c3ccccc3)C2c2ccccc2)cc1 (configuration not stated) = 10.6 µM
O=C(CCn1c(=O)[nH]c2ccccc21)NCC1Cc2cccc(-c3ccncc3)c2O1 (configuration not stated) = > 100 µM
CN1CCN(c2ccc(NC(=O)Oc3ccccc3)cc2)CC1 = 25.4 µM
Cc1ccn2c(NC(C)(C)CC(C)(C)C)c(-c3ccccc3OC(=O)C3CCCC3)nc2c1 = > 10 µM
Oc1cccc2ccc(Nc3ccccn3)nc12 = 8.87 µM

Query block: Output CC50 of CCOC(=O)c1cccc(N2C(N)=NC(N)=NC2(C)C)c1
Result block: > 10 µM

Query block: For O=C(c1cccc(F)c1)N1CCN(Cc2ccncc2)CC1 , write its CC50.
Result block: > 100 µM

Query block: Item Clc1ccc(CNCCCn2ccnc2)cc1Cl : provide CC50
Result block: > 10 µM

Query block: Note down CC50 recorded for CS(=O)(=O)N(CCc1ccccc1)CC(O)CN1CCC(CNC(=O)NC(c2ccccc2)c2ccccc2)CC1 (configuration not stated)
Result block: > 10 µM

Query block: Identify measured CC50 corresponding to O=C(NN=Cc1c(O)ccc2ccccc12)c1cccnc1
Result block: > 100 µM

Query block: Determine from records and report CC50 for COc1ccc(CN2CSC3=C(C#N)C(c4cccc(OC)c4)CC(=O)N3C2)cc1 (configuration not stated)
Result block: > 100 µM

###

# Assay Details: NOVARTIS: Cytotoxicity against human hepatocellular carcinoma cell line (Huh7)
# Format: toxicity, cell-based, Huh-7
# Experimental Conditions: Huh7 cells (hepatocellular carcinoma cell line)
This section presents compounds with their documented CC50 values.

c1ccc(-c2nn(-c3ccccc3)[n+](-c3ccccc3)n2)cc1 = > 100 µM
CCc1n(CC(=O)OC2CC(C)CCC2C(C)C)c2ccccc2[n+]1C (stereo unspecified) = 29.9 µM
CCC(=O)NC(c1cccc([N+](=O)[O-])c1)c1ccc2cccnc2c1O (stereo unspecified) = > 100 µM
COc1cnc(-c2ccccn2)nc1NC(C)C = 2.5 µM
COc1ccc(C2C(C(=O)Nc3cccc(OC)c3)c3ccccc3C(=O)N2C2CCCCC2)cc1 (stereo unspecified) = > 100 µM

Query block: Look up and state reported CC50 for Cc1ccccc1CNC(=O)c1oc2c(c1C)-c1[nH]ncc1CC2
Result block: > 10 µM
